Source of measurements: paper PMC7006757

target: EGFR^wt-TK (Homo sapiens, UniProt P00533); construct: purchased Sino Biology Inc; experiment: In vitro EGFR^wt-TK assay (ELISA with recombinant EGFR); assay type: biochemical; conditions: 1 μM; mean ± SD of three replicates; read-out: EGFR^wt-TK inhibition rate (%, 1 μM)
Sequence (P00533 25-1210): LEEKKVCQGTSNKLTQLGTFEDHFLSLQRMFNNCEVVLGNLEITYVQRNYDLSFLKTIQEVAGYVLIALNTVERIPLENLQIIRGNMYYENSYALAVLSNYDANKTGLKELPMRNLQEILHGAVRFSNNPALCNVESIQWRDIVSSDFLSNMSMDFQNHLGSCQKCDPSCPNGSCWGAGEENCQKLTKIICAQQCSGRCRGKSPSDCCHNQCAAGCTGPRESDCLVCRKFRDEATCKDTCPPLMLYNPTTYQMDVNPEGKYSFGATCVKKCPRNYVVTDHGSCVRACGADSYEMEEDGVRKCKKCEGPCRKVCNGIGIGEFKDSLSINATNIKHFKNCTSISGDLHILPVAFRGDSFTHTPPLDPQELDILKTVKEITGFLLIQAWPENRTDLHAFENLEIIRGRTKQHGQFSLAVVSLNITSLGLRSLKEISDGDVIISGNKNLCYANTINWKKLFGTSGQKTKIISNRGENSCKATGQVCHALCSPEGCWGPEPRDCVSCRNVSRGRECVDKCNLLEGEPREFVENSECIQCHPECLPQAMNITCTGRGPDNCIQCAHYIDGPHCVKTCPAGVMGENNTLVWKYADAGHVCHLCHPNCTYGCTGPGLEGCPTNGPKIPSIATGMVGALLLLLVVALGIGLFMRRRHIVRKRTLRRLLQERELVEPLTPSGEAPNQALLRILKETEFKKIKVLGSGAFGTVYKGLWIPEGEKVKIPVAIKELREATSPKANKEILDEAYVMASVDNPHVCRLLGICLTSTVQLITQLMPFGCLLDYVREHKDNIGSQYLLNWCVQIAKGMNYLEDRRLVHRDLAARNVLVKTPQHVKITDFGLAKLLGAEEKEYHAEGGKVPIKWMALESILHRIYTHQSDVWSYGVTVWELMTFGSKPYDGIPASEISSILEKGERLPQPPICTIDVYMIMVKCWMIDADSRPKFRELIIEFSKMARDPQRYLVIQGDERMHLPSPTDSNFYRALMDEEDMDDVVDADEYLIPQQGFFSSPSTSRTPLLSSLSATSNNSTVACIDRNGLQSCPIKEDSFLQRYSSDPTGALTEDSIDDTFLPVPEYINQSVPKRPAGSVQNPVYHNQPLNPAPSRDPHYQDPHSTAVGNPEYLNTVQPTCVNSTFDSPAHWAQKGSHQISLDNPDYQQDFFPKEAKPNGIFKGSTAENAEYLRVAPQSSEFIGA
Endpoint: inhibition at 1 µM (%)

# annotated cases, reported inhibition at 1 µM shown
Cn1c(COc2ccc(/C=N/c3ccc(F)c(Cl)c3)cc2)nc2ccccc2c1=O ... 16.7
Cn1c(COc2ccc(/C=N/c3cccc(Cl)c3)cc2)nc2ccccc2c1=O ... 1.04
Cn1c(COc2ccc(/C=N/c3ccccc3)cc2)nc2ccccc2c1=O ... 1.91

1: Cn1c(COc2ccc(/C=N/c3cccc(Br)c3)cc2)nc2ccccc2c1=O
2: Cn1c(COc2ccc(/C=N/c3ccccc3F)cc2)nc2ccccc2c1=O
[Q] Identify the item whose inhibition at 1 µM is the smaller number: 1 or 2 Refer to your chosen entry by its label in the reply.
[A] 2

I: Cn1c(COc2ccc(/C=N/c3cccc(F)c3)cc2)nc2ccccc2c1=O
II: COc1ccccc1/N=C/c1ccc(OCc2nc3ccccc3c(=O)n2C)cc1
[Q] Identify the item whose inhibition at 1 µM is the smaller number: I or II Refer to your chosen entry by its label in the reply.
[A] II

* * *

tested on: SMMC-7721 cells; experiment: MTT assay, SMMC-7721; settings: Homo sapiens, SMMC-7721, read-out: IC50 (μM) SMMC-7721
Endpoint: IC50 (µM)

# annotated cases, reported IC50 shown
Cn1c(COc2ccc(/C=N/c3cccc(F)c3)cc2)nc2ccccc2c1=O [5g] ... 35.9
O=c1[nH]cc(F)c(=O)[nH]1 [5-Fluorouracil, reference compound] ... 11.4

I: Cn1c(COc2ccc(/C=N/c3cc(F)cc(F)c3)cc2)nc2ccccc2c1=O [5l]
II: Cn1c(COc2ccc(/C=N/c3ccc(F)c(F)c3)cc2)nc2ccccc2c1=O [5k]
[Q] Identify the item whose IC50 is the smaller number: I or II Refer to your chosen entry by its label in the reply.
[A] I

* * *

# maps each entry to its melting point

Cn1c(COc2ccc(/C=N/c3ccccc3F)cc2)nc2ccccc2c1=O [5f] ... 143 to 145 °C
Cn1c(COc2ccc(/C=N/c3cccc(Br)c3)cc2)nc2ccccc2c1=O [5j] ... 176 to 178 °C
Cn1c(COc2ccc(/C=N/c3c(F)cccc3F)cc2)nc2ccccc2c1=O [5m] ... 181 to 183 °C
Cc1ccc(/N=C/c2ccc(OCc3nc4ccccc4c(=O)n3C)cc2)cc1 [5c] ... 182 to 184 °C
Cn1c(COc2ccc(/C=N/c3ccc(Cl)c(C(F)(F)F)c3)cc2)nc2ccccc2c1=O [5p] ... 163 to 164 °C

[Q] Give its melting point value. Item: Cn1c(COc2ccc(/C=N/c3ccc(F)cc3F)cc2)nc2ccccc2c1=O [5n]
[A] 181 to 183 °C

[Q] Give its melting point value. Item: COc1ccccc1/N=C/c1ccc(OCc2nc3ccccc3c(=O)n2C)cc1 [5d]
[A] 141 to 143 °C

[Q] Give its melting point value. Item: COc1ccc(/N=C/c2ccc(OCc3nc4ccccc4c(=O)n3C)cc2)cc1 [5e]
[A] 180 to 182 °C

[Q] Give its melting point value. Item: Cn1c(COc2ccc(/C=N/c3cccc(Cl)c3)cc2)nc2ccccc2c1=O [5i]
[A] 179 to 181 °C
